tested on: MCF7; test: NCI single dose screening (10 µM); type: cell-based; conditions: Homo sapiens; MCF7, Breast cancer, single dose 10^−5 M; read-out: GI% (cell growth inhibition percentage)
Give measured inhibition at 10 µM for each item. Keep answers brief.
Give just the numeric value; % need not be written.

Q: Endpoint output: inhibition at 10 µM of Cc1c(C(=O)N/N=C2\C(=O)Nc3ccc(Br)cc32)oc2ccccc12 [Compound 5c] . Value?
Ans: 26.7

Q: Endpoint output: inhibition at 10 µM of Cc1c(C(=O)N/N=C2\C(=O)Nc3ccc(F)cc32)oc2ccccc12 [Compound 5b] . Value?
Ans: 19

Q: Endpoint output: inhibition at 10 µM of Cc1c(C(=O)N/N=C2\C(=O)N(C)c3ccccc32)oc2ccccc12 [Compound 7a] . Value?
Ans: 28.2

Q: Endpoint output: inhibition at 10 µM of COc1ccc2c(c1)/C(=N/NC(=O)c1oc3ccccc3c1C)C(=O)N2 [Compound 5d] . Value?
Ans: 77.1

====

test system: HCC-2998; assay: NCI single dose screening (10 µM); assay type: cell-based; conditions: Homo sapiens; HCC-2998, Colon cancer, single dose 10^−5 M; read-out: GI% (cell growth inhibition percentage)
PARAMETER: inhibition at 10 µM

Q: Endpoint output: inhibition at 10 µM of COc1ccc2c(c1)/C(=N/NC(=O)c1oc3ccccc3c1C)C(=O)N2 . Value?
Ans: 56.5%

Q: Endpoint output: inhibition at 10 µM of Cc1c(C(=O)N/N=C2\C(=O)N(C)c3ccccc32)oc2ccccc12 . Value?
Ans: < 10%

Q: Endpoint output: inhibition at 10 µM of Cc1c(C(=O)N/N=C2\C(=O)Nc3ccc(Br)cc32)oc2ccccc12 . Value?
Ans: < 10%

Q: Endpoint output: inhibition at 10 µM of Cc1c(C(=O)N/N=C2\C(=O)Nc3ccc(F)cc32)oc2ccccc12 . Value?
Ans: < 10%

====

test system: KM12; assay: NCI single dose screening (10 µM); type: cell-based; conditions: Homo sapiens; KM12, Colon cancer, single dose 10^−5 M; read-out: GI% (cell growth inhibition percentage)
Give measured inhibition at 10 µM for each item. Keep answers brief.
Give just the numeric value; % need not be written.

Q: Endpoint output: inhibition at 10 µM of Cc1c(C(=O)N/N=C2\C(=O)Nc3ccc(Br)cc32)oc2ccccc12 . Value?
Ans: 20.5

Q: Endpoint output: inhibition at 10 µM of COc1ccc2c(c1)/C(=N/NC(=O)c1oc3ccccc3c1C)C(=O)N2 . Value?
Ans: 56.2

====

test system: SNB-19; assay: NCI single dose screening (10 µM); assay type: cell-based; conditions: Homo sapiens; SNB-19, CNS cancer, single dose 10^−5 M; read-out: GI% (cell growth inhibition percentage)
Give measured inhibition at 10 µM for each item. Keep answers brief.

Q: Can you look up inhibition at 10 µM on SNB-19 for Cc1c(C(=O)N/N=C2\C(=O)N(C)c3ccccc32)oc2ccccc12 ?
Ans: < 10%

Q: Can you look up inhibition at 10 µM on SNB-19 for Cc1c(C(=O)N/N=C2\C(=O)Nc3ccc(F)cc32)oc2ccccc12 ?
Ans: < 10%

Q: Can you look up inhibition at 10 µM on SNB-19 for COc1ccc2c(c1)/C(=N/NC(=O)c1oc3ccccc3c1C)C(=O)N2 ?
Ans: 57.3%

Q: Can you look up inhibition at 10 µM on SNB-19 for Cc1c(C(=O)N/N=C2\C(=O)Nc3ccc(Br)cc32)oc2ccccc12 ?
Ans: 31.5%

====

system: TK-10; assay: NCI single dose screening (10 µM); assay type: cell-based; details: Homo sapiens; TK-10, Renal cancer, single dose 10^−5 M; read-out: GI% (cell growth inhibition percentage)
Give measured inhibition at 10 µM for each item. Keep answers brief.

Q: Can you look up inhibition at 10 µM on TK-10 for COc1ccc2c(c1)/C(=N/NC(=O)c1oc3ccccc3c1C)C(=O)N2 [Compound 5d] ?
Ans: 194%

Q: Can you look up inhibition at 10 µM on TK-10 for Cc1c(C(=O)N/N=C2\C(=O)Nc3ccc(F)cc32)oc2ccccc12 [Compound 5b] ?
Ans: < 10%

Q: Can you look up inhibition at 10 µM on TK-10 for Cc1c(C(=O)N/N=C2\C(=O)N(C)c3ccccc32)oc2ccccc12 [Compound 7a] ?
Ans: < 10%

Q: Can you look up inhibition at 10 µM on TK-10 for Cc1c(C(=O)N/N=C2\C(=O)Nc3ccc(Br)cc32)oc2ccccc12 [Compound 5c] ?
Ans: < 10%

====

Give measured inhibition at 10 µM for each item. Keep answers brief.
tested on: M14; test: NCI single dose screening (10 µM); format: cell-based; details: Homo sapiens; M14, Melanoma, single dose 10^−5 M; read-out: GI% (cell growth inhibition percentage)
Give just the numeric value; % need not be written.

Q: Endpoint output: inhibition at 10 µM of COc1ccc2c(c1)/C(=N/NC(=O)c1oc3ccccc3c1C)C(=O)N2 . Value?
Ans: 71.3

Q: Endpoint output: inhibition at 10 µM of Cc1c(C(=O)N/N=C2\C(=O)Nc3ccc(Br)cc32)oc2ccccc12 . Value?
Ans: 25.4

====

Give measured inhibition at 10 µM for each item. Keep answers brief.
system: HL-60(TB); assay: NCI single dose screening (10 µM); assay type: cell-based; conditions: Homo sapiens, HL-60, read-out: GI% (cell growth inhibition percentage)
Give just the numeric value; % need not be written.

Q: Endpoint output: inhibition at 10 µM of CCCN1C(=O)/C(=N\NC(=O)c2oc3ccccc3c2C)c2ccccc21 . Value?
Ans: 10.9

Q: Endpoint output: inhibition at 10 µM of COc1ccc2c(c1)/C(=N/NC(=O)c1oc3ccccc3c1C)C(=O)N2 . Value?
Ans: 46.1

====

test system: SF-268; test: NCI single dose screening (10 µM); type: cell-based; conditions: Homo sapiens; SF-268, CNS cancer, single dose 10^−5 M; read-out: GI% (cell growth inhibition percentage)
Give measured inhibition at 10 µM for each item. Keep answers brief.
Give just the numeric value; % need not be written.

Q: Can you look up inhibition at 10 µM on SF-268 for Cc1c(C(=O)N/N=C2\C(=O)Nc3ccc(Br)cc32)oc2ccccc12 [Compound 5c] ?
Ans: 11.7

Q: Can you look up inhibition at 10 µM on SF-268 for COc1ccc2c(c1)/C(=N/NC(=O)c1oc3ccccc3c1C)C(=O)N2 [Compound 5d] ?
Ans: 42.3

====

test system: NCI-H460; test: NCI single dose screening (10 µM); format: cell-based; settings: Homo sapiens; NCI-H460, Non-small cell lung cancer, single dose 10^−5 M; read-out: GI% (cell growth inhibition percentage)
Give measured inhibition at 10 µM for each item. Keep answers brief.

Q: Endpoint output: inhibition at 10 µM of COc1ccc2c(c1)/C(=N/NC(=O)c1oc3ccccc3c1C)C(=O)N2 . Value?
Ans: 123%

Q: Endpoint output: inhibition at 10 µM of Cc1c(C(=O)N/N=C2\C(=O)N(C)c3ccccc32)oc2ccccc12 . Value?
Ans: < 10%

Q: Endpoint output: inhibition at 10 µM of Cc1c(C(=O)N/N=C2\C(=O)Nc3ccc(F)cc32)oc2ccccc12 . Value?
Ans: < 10%

Q: Endpoint output: inhibition at 10 µM of Cc1c(C(=O)N/N=C2\C(=O)Nc3ccc(Br)cc32)oc2ccccc12 . Value?
Ans: 42.6%

====

Give measured inhibition at 10 µM for each item. Keep answers brief.
system: NCI-H522; test: NCI single dose screening (10 µM); type: cell-based; settings: Homo sapiens; NCI-H522, Non-small cell lung cancer, single dose 10^−5 M; read-out: GI% (cell growth inhibition percentage)
Give just the numeric value; % need not be written.

Q: Endpoint output: inhibition at 10 µM of Cc1c(C(=O)N/N=C2\C(=O)Nc3ccc(F)cc32)oc2ccccc12 [Compound 5b] . Value?
Ans: 10.4

Q: Endpoint output: inhibition at 10 µM of Cc1c(C(=O)N/N=C2\C(=O)Nc3ccc(Br)cc32)oc2ccccc12 [Compound 5c] . Value?
Ans: 10.3

Q: Endpoint output: inhibition at 10 µM of COc1ccc2c(c1)/C(=N/NC(=O)c1oc3ccccc3c1C)C(=O)N2 [Compound 5d] . Value?
Ans: 45.7

====

Give measured inhibition at 10 µM for each item. Keep answers brief.
test system: CAKI-1; assay: NCI single dose screening (10 µM); format: cell-based; settings: Homo sapiens; CAKI-1, Renal cancer, single dose 10^−5 M; read-out: GI% (cell growth inhibition percentage)
Give just the numeric value; % need not be written.

Q: Can you look up inhibition at 10 µM on CAKI-1 for Cc1c(C(=O)N/N=C2\C(=O)Nc3ccc(Br)cc32)oc2ccccc12 [Compound 5c] ?
Ans: 26.6

Q: Can you look up inhibition at 10 µM on CAKI-1 for Cc1c(C(=O)N/N=C2\C(=O)N(C)c3ccccc32)oc2ccccc12 [Compound 7a] ?
Ans: 19.4

Q: Can you look up inhibition at 10 µM on CAKI-1 for Cc1c(C(=O)N/N=C2\C(=O)Nc3ccc(F)cc32)oc2ccccc12 [Compound 5b] ?
Ans: 19.5

Q: Can you look up inhibition at 10 µM on CAKI-1 for COc1ccc2c(c1)/C(=N/NC(=O)c1oc3ccccc3c1C)C(=O)N2 [Compound 5d] ?
Ans: 152
